Experiment: logP determination by HPLC (EEC Directive 79/831 Annex V. A8)
Assay type: physicochemical
readout-type: chromatographic logP

- compound: "CO/N=C(/C(C)=N/OCc1ccccc1/C(=C\\C(=O)OC)OC)S(C)(=O)=O [Example 2]"
  chromatographic logP: 2.79
- compound: "CO/N=C(OC)/C(C)=N/OCc1ccccc1/C(=C\\C(=O)OC)OC [Example 3]"
  chromatographic logP: 3.05
- compound: "CO/N=C(SC)/C(C)=N/OCc1ccccc1/C(=C\\C(=O)OC)OC [Example 1]"
  chromatographic logP: 3.5
